Source: PubChem BioAssay (NCI)

Test system: ACHN renal
Assay: NCI-60 one-dose screen, 48 h (100 = growth as untreated, 0 = no growth, -100 = all killed)
Details: 10 µM unless noted
The panel holds about 83,000 compounds, 20% with a hit somewhere; the sample as a whole holds those more often.
PROPERTY MEASURED: growth (%)

[[record]]
molecular_string = "CCCCCN1C=C/C(=C\\C(=O)n2ccc3ccccc32)c2ccccc21"
unit_info = "%"
meas_value = 93.5

[[record]]
molecular_string = "Cc1cc2nc3c4cc(C=O)ccc4n(CCN(C)C)c3nc2cc1C"
unit_info = "%"
meas_value = -15

[[record]]
molecular_string = "C=C1C(=O)O[C@H]2[C@H]1CC/C(COC(=O)NCc1c[nH]c3ccc(Cl)cc13)=C\\CC[C@@]1(C)O[C@@H]21"
unit_info = "%"
meas_value = -98

[[record]]
molecular_string = "CCC(CC)NCC(C)(C)O"
unit_info = "%"
meas_value = 102


----------
System: UACC-62 melanoma
Experiment: NCI-60 one-dose screen, 48 h (100 = growth as untreated, 0 = no growth, -100 = all killed)
Settings: 10 µM unless noted
About 83,000 compounds went through this panel and 20% of them were active in at least one assay; those are over-represented in the sample as a whole.
Each entry below lists one item and its recorded growth value.
PROPERTY MEASURED: growth (%)

[[record]]
molecule = "C=C(CBr)[C@@H]1CC[C@]2(COC(C)=O)CC[C@]3(C)[C@H](CC[C@@H]4[C@@]5(C)CCCNC(C)(C)[C@@H]5CC[C@]43C)[C@@H]12"
assay_target = "UACC-62 melanoma"
unit_info = "%"
meas_value = 24.8

[[record]]
molecule = "COc1ccc2[nH]c(O)c(/C=c3/cc4c(c(-c5ccc(F)cc5)n3)=Nc3ccccc3-4)c2c1"
assay_target = "UACC-62 melanoma"
unit_info = "%"
meas_value = 90.2

[[record]]
molecule = "CCOC(=O)c1cc(C(=O)c2ccc(OC)c(OC)c2)n2c1ccc1ccccc12"
assay_target = "UACC-62 melanoma"
unit_info = "%"
meas_value = 74.3

[[record]]
molecule = "O=C1Nc2cc(-c3ccc(NS(=O)(=O)c4ccccc4)cc3)ccc2/C1=C/c1ccc[nH]1"
assay_target = "UACC-62 melanoma"
unit_info = "%"
meas_value = 89.3

[[record]]
molecule = "CC1(C)CC(=O)C2=C(C1)N(c1ccc(F)cc1F)C(N)=C(C#N)C2c1cc(Br)ccc1F (stereo unspecified)"
assay_target = "UACC-62 melanoma"
unit_info = "%"
meas_value = 91.1

[[record]]
molecule = "COc1cc(/C=C\\c2cc(OC)c(OC)c(OC)c2)cc(N)c1OC"
assay_target = "UACC-62 melanoma"
unit_info = "%"
meas_value = 74.7

[[record]]
molecule = "c1ccc2c(-c3nccs3)c[nH]c2c1"
assay_target = "UACC-62 melanoma"
unit_info = "%"
meas_value = 93.5

[[record]]
molecule = "COc1ccc(/C=C/c2nc(Nc3ccc(S(=O)(=O)NC(C)=O)cc3)c3ccccc3n2)cc1"
assay_target = "UACC-62 melanoma"
unit_info = "%"
meas_value = 25.6

[[record]]
molecule = "COc1ccc(C(=O)CSc2nc(-c3cc(OC)ccc3OC)cc(-c3ccc(Cl)cc3)c2C#N)cc1"
assay_target = "UACC-62 melanoma"
unit_info = "%"
meas_value = 16.8

[[record]]
molecule = "C[C@@H](Nc1ncnc2ccc(-c3cnc(N)nc3)cc12)c1ccc(F)cc1"
assay_target = "UACC-62 melanoma"
unit_info = "%"
meas_value = 69.2

[[record]]
molecule = "CC(C)N1C(=O)/C(=C2\\SC(=S)N(C(C)C)C2=O)SC1=S"
assay_target = "UACC-62 melanoma"
unit_info = "%"
meas_value = 91.7

[[record]]
molecule = "CN1CCN(C(=O)[C@]23CCC(C)(C)C[C@H]2C2=CC[C@@H]4[C@@]5(C)C/C(=C/c6cccnc6)C(=O)C(C)(C)[C@@H]5CC[C@@]4(C)[C@]2(C)CC3)CC1"
assay_target = "UACC-62 melanoma"
unit_info = "%"
meas_value = 52.8

[[record]]
molecule = "CN[C@@H](C)C(=O)N[C@H]1CCS[C@H]2CC(C)(C)[C@@H](C(=O)N[C@H]3c4ccccc4C[C@H]3OCC#CC#CCO[C@@H]3Cc4ccccc4[C@@H]3NC(=O)[C@H]3N4C(=O)[C@@H](NC(=O)[C@H](C)NC)CCS[C@H]4CC3(C)C)N2C1=O"
assay_target = "UACC-62 melanoma"
unit_info = "%"
meas_value = 102

[[record]]
molecule = "COc1c(Cl)c2c(c(OC)c1OC)-c1ccc(SC)c(=O)cc1[C@@H](NC(=O)OCC(F)(F)F)CC2"
assay_target = "UACC-62 melanoma"
unit_info = "%"
meas_value = 34.4

[[record]]
molecule = "O=C(Nc1ccc(NC(=O)c2cc(=O)[nH]c3ccccc23)cc1)Nc1cccc(Cl)c1"
assay_target = "UACC-62 melanoma"
unit_info = "%"
meas_value = 84.6

[[record]]
molecule = "CCC(=O)Oc1ccc(/C(=C(\\C)c2ccccc2)c2ccc(OCCN3CCCCC3)cc2)cc1"
assay_target = "UACC-62 melanoma"
unit_info = "%"
meas_value = 88.5


----------
Tested on: SK-MEL-28 melanoma
Assay: NCI-60 one-dose screen, 48 h
Settings: 10 µM unless noted
Compounds without any hit were thinned out: in the full panel of roughly 83,000, 20% have a hit. Calls of active or inactive are those of the source. How the source made its calls: active means growth percent below 10; inactive means the rest.
Outcome codes: active, inactive

[[record]]
compound = "c1ccc2cc(Cn3c(-c4cccc5ccccc45)[n+](Cc4ccc5ccccc5c4)c4c5ccccc5c5ccccc5c43)ccc2c1"
class_name = "active"

[[record]]
compound = "Cc1ccccc1NS(=O)(=O)c1cccc(C(=O)Nc2ccc(Br)cc2)c1"
class_name = "inactive"

[[record]]
compound = "CCCCOc1ccc(/C=N/Nc2cc(C)nc3ccc(Br)cc23)cc1"
class_name = "inactive"

[[record]]
compound = "O=C(N/N=C/c1cc2ccccc2n2nnnc12)Nc1ccccc1"
class_name = "inactive"

[[record]]
compound = "C=C(C)[C@@H]1CC[C@]2(C(=O)N[C@H](CO)Cc3ccccc3)CC[C@]3(C)[C@H](CC[C@@H]4[C@@]5(C)CCCNC(C)(C)[C@@H]5CC[C@]43C)[C@@H]12"
class_name = "active"

[[record]]
compound = "Cc1nc(N)nc(N[C@@H](C)c2nc3cccc(NCc4ccc(C(=O)NO)cc4)c3c(=O)n2-c2ccccc2)n1"
class_name = "inactive"

[[record]]
compound = "O=C(c1nc2ccccc2[nH]1)C1C(c2ccc(Cl)cc2)C2CC3CCCC[C@H]3N2[C@@]12C(=O)Nc1cc(Cl)ccc12 (stereo partly drawn)"
class_name = "inactive"

[[record]]
compound = "O=c1c2c(c(=O)n1O)c1c3ccc[nH]c3nc1c1nc3[nH]cccc3c12"
class_name = "inactive"

[[record]]
compound = "COc1ccc(C(=O)c2cc(OC)c(OC)c(OC)c2)cc1O"
class_name = "inactive"

[[record]]
compound = "O=C1C=CC(=O)N1c1cccc(Cl)c1"
class_name = "inactive"

[[record]]
compound = "COc1ccc(N2CCN(c3ccc(NC4=C(Cl)C(=O)c5ncccc5C4=O)cc3)CC2)cc1"
class_name = "inactive"

[[record]]
compound = "CCCCCCOc1ccc(/C=N/Nc2cc(C)nc3ccc(Cl)cc23)cc1"
class_name = "active"

[[record]]
compound = "Nc1c(C(=O)Nc2ccnc3ccccc23)sc2nc3c(cc12)CN(Cc1ccccc1)CC3"
class_name = "inactive"

[[record]]
compound = "Cn1c(N2NC(=O)C(N=Nc3ccc(S(N)(=O)=O)cc3)C2=O)nc(-c2ccco2)c(C#N)c1=O (stereo not drawn)"
class_name = "inactive"

[[record]]
compound = "CN1C(=O)NC(c2ccc3c(c2)OCO3)C=C1c1ccccc1 (stereo not drawn)"
class_name = "inactive"

[[record]]
compound = "CC(c1ccccc1)C(C(=O)c1ccccc1)c1ccccc1 (stereo not drawn)"
class_name = "inactive"

[[record]]
compound = "Oc1ccc(C(c2ccc(O)cc2)c2ccc(Br)cn2)cc1"
class_name = "inactive"

[[record]]
compound = "C/C=C(\\C)C(=O)NC1=CC[C@@]2(C)C(=CCC3C2CC[C@@]2(C)C3CC[C@@H]2C(C)N(C)C)C1=O (stereo partly drawn)"
class_name = "active"


----------
System: SF-295 CNS
Test: NCI-60 one-dose screen, 48 h
Settings: 10 µM unless noted
Compounds without any hit were thinned out: in the full panel of roughly 83,000, 20% have a hit. Calls of active or inactive are those of the source. How the source made its calls: active means growth percent below 10; inactive means the rest.
Possible outcomes: True = active, False = inactive

[[record]]
compound = "COc1cc(/C=C\\c2cc(OC)c(OC)c(OC)c2)cc(N)c1OC"
assay_target = "SF-295 CNS"
class_name = "False"

[[record]]
compound = "Cc1ccc(/C=N/NC(=O)CSc2nc3ccccc3c(=O)n2Cc2ccc(S(N)(=O)=O)cc2)cc1"
assay_target = "SF-295 CNS"
class_name = "False"

[[record]]
compound = "COc1ccc(CNCCN2C(=O)c3ccc4c5c(ccc(c35)C2=O)C(=O)N(CCNCc2ccc(OC)c(OC)c2OC)C4=O)c(OC)c1OC"
assay_target = "SF-295 CNS"
class_name = "True"

[[record]]
compound = "COc1cc(C2C3CC4CCCC[C@H]4N3[C@@]3(C(=O)Nc4cc(Cl)ccc43)C2C(=O)c2nc3ccccc3[nH]2)cc(OC)c1OC (some centres undefined)"
assay_target = "SF-295 CNS"
class_name = "False"

[[record]]
compound = "Cc1cc2cc3ccc(N(C)C)cc3nc2cc1N"
assay_target = "SF-295 CNS"
class_name = "True"

[[record]]
compound = "O=C(CCN1CCCC1)Nc1ccc2c(NCCCc3ccccc3)c3ccccc3nc2c1"
assay_target = "SF-295 CNS"
class_name = "False"

[[record]]
compound = "CC(=O)CCC(=O)OCc1cc(=O)c(O)co1"
assay_target = "SF-295 CNS"
class_name = "False"

[[record]]
compound = "COc1ccc2[nH]c(O)c(/C=c3/cc4c(c(-c5ccc(F)cc5)n3)=Nc3ccccc3-4)c2c1"
assay_target = "SF-295 CNS"
class_name = "False"

[[record]]
compound = "Fc1ccc2c(-c3cncn3CCc3ccccc3)c[nH]c2c1"
assay_target = "SF-295 CNS"
class_name = "False"

[[record]]
compound = "C=C1C(=O)O[C@H]2[C@H]1CC/C(C(=O)NCCCCCNC(=O)/C1=C/CC[C@@]3(C)O[C@H]3[C@H]3OC(=O)C(=C)[C@@H]3CC1)=C\\CC[C@@]1(C)O[C@@H]21"
assay_target = "SF-295 CNS"
class_name = "False"

[[record]]
compound = "CCCOC(=O)N[C@H]1CCc2c(Cl)c(OC)c(OC)c(OC)c2-c2ccc(SC)c(=O)cc21"
assay_target = "SF-295 CNS"
class_name = "False"

[[record]]
compound = "CN1CCN(C(=O)[C@]23CCC(C)(C)C[C@H]2C2=CC[C@@H]4[C@@]5(C)C/C(=C/c6ccncc6)C(=O)C(C)(C)[C@@H]5CC[C@@]4(C)[C@]2(C)CC3)CC1"
assay_target = "SF-295 CNS"
class_name = "False"

[[record]]
compound = "COc1ccc(-c2cnc3c(-c4cccc5ncccc45)cnn3c2)cc1"
assay_target = "SF-295 CNS"
class_name = "False"

[[record]]
compound = "O=C1CC(=O)OC(c2ccc([N+](=O)[O-])cc2)O1"
assay_target = "SF-295 CNS"
class_name = "False"

[[record]]
compound = "COc1ccc(C(=O)Nc2cccc(C3CCc4c(cc(OC)c(OC)c4OC)O3)c2)cc1 (centres undefined)"
assay_target = "SF-295 CNS"
class_name = "False"

[[record]]
compound = "COc1ccc(C(=O)NNc2nc(Cl)nc(N3CCN(C(c4ccccc4)c4ccccc4)CC3)n2)cc1"
assay_target = "SF-295 CNS"
class_name = "False"

[[record]]
compound = "O=C(/C=C/c1ccc(Cl)cc1)c1ccc(NC(=O)N2CCN(c3cc4c(cc3F)c(=O)c(C(=O)O)cn4C3CC3)CC2)cc1"
assay_target = "SF-295 CNS"
class_name = "False"

[[record]]
compound = "N=C(N)c1ccc(OCCCCCCCCCCOc2ccc(C(=N)N)cc2)cc1"
assay_target = "SF-295 CNS"
class_name = "True"

[[record]]
compound = "Cn1ccnc1C(=O)/C=C/c1ccc(CC(=O)NC2CCCCC2)cc1"
assay_target = "SF-295 CNS"
class_name = "False"

[[record]]
compound = "Clc1ccc(-c2ccc(CNCC3CCNCC3)o2)c(-c2ccccc2)c1"
assay_target = "SF-295 CNS"
class_name = "True"

[[record]]
compound = "O=C1c2ccc3c4c(ccc(c24)C(=O)N1CCCNCc1ccccc1)C(=O)N(CCCNCc1ccccc1)C3=O"
assay_target = "SF-295 CNS"
class_name = "True"

[[record]]
compound = "C=C1C(=O)O[C@H]2[C@H]1CC/C(CNC(=O)/C=C/c1ccccc1)=C\\CC[C@@]1(C)O[C@@H]21"
assay_target = "SF-295 CNS"
class_name = "False"

[[record]]
compound = "C=C(C)[C@@H]1CC[C@]2(C(=O)N3CCN(C)CC3)CC[C@]3(C)[C@H](CC[C@@H]4[C@@]5(C)CC[C@H](O)C(C)(C)[C@@H]5CC[C@]43C)[C@@H]12"
assay_target = "SF-295 CNS"
class_name = "True"

[[record]]
compound = "Cc1ccc(-c2csc(NC(=O)CSc3nc(-c4ccccc4)cc(=O)[nH]3)n2)cc1"
assay_target = "SF-295 CNS"
class_name = "False"

